Origin of measurements: patent US20260070987A1

# assayed_system: equine FcRn (large alpha subunit p51) in complex with equine beta-2-microglobulin (equine) (UniProt F6XZ61)
# experimental_protocol: SPR (Biacore), pH 6
parameter: Kd (nM)
The figure you give is taken to be in nM; do not add the unit.

binder	Kd (nM)
equine IgG7 D312C mutant (antibody, part only; not given: variable domains, not shown: another chain or arm of the molecule) constant: ASTTAPKVFPLASHSAATSGSTVALGCLVSSYFPEPVTVSWNSGALTSGVHTFPSVLQSSGLYSLSSMVTVPASSLKSQTYICNVAHPASSTKVDKKIVIKECGGCPTCPECLSVGPSVFIFPPKPKDVLMISRTPTVTCVVVDVGHDFPDVQFNWYVDGVETHTATTEPKQEQNNSTYRVVSILAIQHKCWLSGKEFKCKVNNQALPAPVQKTISKPTGQPREPQVYVLAPHRDELSKNKVSVTCLVKDFYPTDIDIEWKSNGQPEPETKYSTTPAQLDSDGSYFLYSKLTVETNRWQQGTTFTCAVMHEALHNHYTEKSVSKSPGK	26.5
equine IgG7 A426R mutant (antibody, part only; not given: Variable domains, not shown: another chain or arm of the molecule) constant: ASTTAPKVFPLASHSAATSGSTVALGCLVSSYFPEPVTVSWNSGALTSGVHTFPSVLQSSGLYSLSSMVTVPASSLKSQTYICNVAHPASSTKVDKKIVIKECGGCPTCPECLSVGPSVFIFPPKPKDVLMISRTPTVTCVVVDVGHDFPDVQFNWYVDGVETHTATTEPKQEQNNSTYRVVSILAIQHKDWLSGKEFKCKVNNQALPAPVQKTISKPTGQPREPQVYVLAPHRDELSKNKVSVTCLVKDFYPTDIDIEWKSNGQPEPETKYSTTPAQLDSDGSYFLYSKLTVETNRWQQGTTFTCRVMHEALHNHYTEKSVSKSPGK	35
equine IgG7 D312W mutant (antibody, part only; not given: variable domains, not shown: another chain or arm of the molecule) constant: ASTTAPKVFPLASHSAATSGSTVALGCLVSSYFPEPVTVSWNSGALTSGVHTFPSVLQSSGLYSLSSMVTVPASSLKSQTYICNVAHPASSTKVDKKIVIKECGGCPTCPECLSVGPSVFIFPPKPKDVLMISRTPTVTCVVVDVGHDFPDVQFNWYVDGVETHTATTEPKQEQNNSTYRVVSILAIQHKWWLSGKEFKCKVNNQALPAPVQKTISKPTGQPREPQVYVLAPHRDELSKNKVSVTCLVKDFYPTDIDIEWKSNGQPEPETKYSTTPAQLDSDGSYFLYSKLTVETNRWQQGTTFTCAVMHEALHNHYTEKSVSKSPGK	13.2

Query: Specify reported Kd for the binder shown: equine IgG7 A426G mutant (antibody, part only; not given: variable domains, not shown: another chain or arm of the molecule) constant: ASTTAPKVFPLASHSAATSGSTVALGCLVSSYFPEPVTVSWNSGALTSGVHTFPSVLQSSGLYSLSSMVTVPASSLKSQTYICNVAHPASSTKVDKKIVIKECGGCPTCPECLSVGPSVFIFPPKPKDVLMISRTPTVTCVVVDVGHDFPDVQFNWYVDGVETHTATTEPKQEQNNSTYRVVSILAIQHKDWLSGKEFKCKVNNQALPAPVQKTISKPTGQPREPQVYVLAPHRDELSKNKVSVTCLVKDFYPTDIDIEWKSNGQPEPETKYSTTPAQLDSDGSYFLYSKLTVETNRWQQGTTFTCGVMHEALHNHYTEKSVSKSPGK
Response: 13.6
